Assign CC50 at 72 h to each entry below.
- Method description: Cytotoxicity against human 293T cells after 3 days by MTT assay
- Type: cell-based, HEK-293T
- Test conditions: 293T cells

Determine from records and report CC50 at 72 h for CC(C)(C)C(=O)COC(=O)c1ccc([N+](=O)[O-])o1
> 100 µM

Complete the entry with CC50 at 72 h for O=C(COC(=O)c1ccc([N+](=O)[O-])o1)NC1Cc2ccccc2C1
> 100 µM

Please list CC50 at 72 h recorded for the molecule COc1ccc(CN(C(=O)COC(=O)c2ccc([N+](=O)[O-])o2)C(C)(C)C)cc1
> 100 µM

Provide one value: measured CC50 at 72 h of O=C(OCCc1ccc([N+](=O)[O-])cc1)c1ccc([N+](=O)[O-])o1
36 µM

Give CC50 at 72 h for the following molecule: CN(OC(=O)c1ccc([N+](=O)[O-])o1)C(=O)c1ccc([N+](=O)[O-])o1
> 100 µM

Identify measured CC50 at 72 h associated with CC(=O)Oc1ccccc1CN(C(=O)COC(=O)c1ccc([N+](=O)[O-])o1)C(C)(C)C
> 100 µM

Note down CC50 at 72 h recorded for CC(C)(Cc1ccccc1)NC(=O)COC(=O)c1ccc([N+](=O)[O-])o1
> 100 µM

Quick one: give measured CC50 at 72 h for CC(C)(C)N(Cc1ccc(F)cc1)C(=O)COC(=O)c1ccc([N+](=O)[O-])o1
> 100 µM

Give the reported value of CC50 at 72 h for this record: O=C(OCC(=O)N(Cc1ccc(O)cc1)CC1CCCO1)c1ccc([N+](=O)[O-])o1 (centres undefined)
> 100 µM

This collection of values is drawn from ChEMBL document CHEMBL1641478.
